biological target: Cyclin-dependent kinase 1 (Homo sapiens); details: at 1 µM;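 also: mean percent inhibition of the CDK1/cyclin B complex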
Overview of recorded inhibition for various compounds
Report only the number, with the unit % understood.

Example compounds with recorded inhibition:
1) COc1ccccc1-c1cc(/C=C2\C(=O)Nc3ncc(Br)cc32)cc(Br)c1O : 5.31
2) COc1ccc(-c2nn3ncccc3c2-c2ccnc(Nc3ccc(F)c(F)c3)n2)cc1 : 2.75
3) CCOc1ccc2c(-c3ccnc(Nc4cc(OC)cc(C(F)(F)F)c4)n3)cnn2n1 : 12.1
4) COc1ccc2ncn(-c3cc(O[C@H](C)c4ccccc4C(F)(F)F)c(C(N)=O)s3)c2c1 : 3.45
5) CS(=O)(=O)CCNCc1ccc(-c2ccc3ncnc(Nc4ccc(OCc5cccc(C(F)(F)F)c5)cc4)c3c2)o1 : 0.34

Give the measured inhibition of COc1cc(N2CCN(C(C)C)CC2)ccc1Nc1nc(Nc2cccc(F)c2C(=O)O)c2cc[nH]c2n1 .
1.51

Give the measured inhibition of COc1ccc(Nc2ncc(-c3ccccc3)o2)cc1OC .
29.9

Give the measured inhibition of c1ccc(-c2n[nH]cc2-c2ccnc(-c3ccc(OCCn4ccnc4)cc3)c2)nc1 .
1.46

Give the measured inhibition of CC1=C(C(=O)Nc2ccc3[nH]ncc3c2)C(c2ccc(F)cc2)N=C(c2ccc(C(F)(F)F)nc2)N1 (stereo unspecified) .
0.48

Give the measured inhibition of COC(=O)Nc1nc2ccc(Oc3ccc(NC(=O)Nc4cc(C(F)(F)F)ccc4F)cc3)cc2s1 .
3.26

Give the measured inhibition of CS(=O)(=O)Nc1ccc(-c2cc(-c3ccccc3)cc(C(N)=O)c2N)cc1 .
-0.25
